- Test system: Staphylococcus aureus
- EXPERIMENTAL_PROTOCOL: Antibacterial activity against Staphylococcus aureus MTCC 96 assessed as growth inhibition after 24 hrs by broth microdilution method
- Assay type: functional
- CONDITIONS_USED: MTCC 96, 24 h
Would you kindly list MIC for each of these compounds?
Answers are plain numbers, in µg/mL.

Here's what some known entries look like.
| COMPOUND | U | MIC |
| --- | --- | --- |
| CC1(C)S[C@@H]2[C@H](NC(=O)[C@H](N)c3ccccc3)C(=O)N2[C@H]1C(=O)O | µg/mL | 188 |
| C/C(=N\n1c(O)c(C#N)c(-c2cccc(O)c2)c(C#N)c1=O)c1cc2c(ccc3ccccc32)oc1=O | µg/mL | 250 |
| C/C(=N\N1C(=O)C(C#N)C=C1c1ccccc1)c1cc2c(ccc3ccccc32)oc1=O (stereo not given) | µg/mL | 125 |
| C/C(=N\NC(=O)c1c(N)sc2c1CCCC2)c1cc2c(ccc3ccccc32)oc1=O | µg/mL | 375 |
| COc1ccc(OC)c(-c2c(C#N)c(O)n(/N=C(\C)c3cc4c(ccc5ccccc54)oc3=O)c(=O)c2C#N)c1 | µg/mL | 250 |

For each of the compounds below, state MIC.
1. C/C(=N\NC(=O)/C(C#N)=C/c1cccnc1)c1cc2c(ccc3ccccc32)oc1=O
2. C/C(=N\NC(=O)c1sc(=S)n(-c2ccccc2)c1N)c1cc2c(ccc3ccccc32)oc1=O
3. COc1ccc(OC)c(-c2c(C#N)c(N)n(/N=C(\C)c3cc4c(ccc5ccccc54)oc3=O)c(=O)c2C#N)c1

a:
125
125
125

For each of the compounds below, state MIC.
1. C/C(=N\NC(=O)/C(C#N)=N/Nc1ccc(C)cc1)c1cc2c(ccc3ccccc32)oc1=O
2. C/C(=N\NC(=O)/C(C#N)=C/c1ccc(Cl)cc1)c1cc2c(ccc3ccccc32)oc1=O
3. C/C(=N\NC(=O)c1cc2c(ccc3ccccc32)oc1=O)c1cc2c(ccc3ccccc32)oc1=O
4. C/C(=N\n1c(N)cc(N)c(C#N)c1=O)c1cc2c(ccc3ccccc32)oc1=O

a:
1. 125
2. 188
3. 62.5
4. 375

* * *

- System: Candida albicans
- EXPERIMENTAL_PROTOCOL: Antifungal activity against Candida albicans assessed as growth inhibition at 1 mg/mL after 48 hrs by […] method
- Format: functional
- CONDITIONS_USED: read-out: DIZ
Would you kindly list zone of inhibition at 1000 µg/mL for each of these compounds?
Numbers only, in mm.

Here's what some known entries look like.
| MOLECULE | U | zone of inhibition at 1000 µg/mL |
| --- | --- | --- |
| COc1ccc(OC)c(-c2c(C#N)c(O)n(/N=C(\C)c3cc4c(ccc5ccccc54)oc3=O)c(=O)c2C#N)c1 | mm | 10 |
| Clc1ccccc1C(c1ccccc1)(c1ccccc1)n1ccnc1 | mm | 30 |
| C/C(=N\NC(=O)/C(C#N)=C/c1ccc(Cl)cc1)c1cc2c(ccc3ccccc32)oc1=O | mm | 17 |
| C/C(=N\NC(=O)CC#N)c1cc2c(ccc3ccccc32)oc1=O | mm | 11 |
| C/C(=N\NC(=O)/C(C#N)=C/c1ccc(F)cc1)c1cc2c(ccc3ccccc32)oc1=O | mm | 18 |

For each of the compounds below, state zone of inhibition at 1000 µg/mL.
1. C/C(=N\NC(=O)c1c(N)sc2c1CCCC2)c1cc2c(ccc3ccccc32)oc1=O
2. C/C(=N\n1c(N)cc(N)c(C#N)c1=O)c1cc2c(ccc3ccccc32)oc1=O

a:
9
18
